Tested on: SW480
Test: Cytotoxicity against human SW480 cells after 48 hrs by MTT assay
Type: functional, cell-based
Conditions: Homo sapiens, SW480, 48 h
Kindly state IC50 for each of the entries shown.

Ask: // IC50 lookup, key: CCOC(=O)[C@]1(C(=O)NCc2ccc(C)cc2)C[C@@H]1c1cc(OC)c(OC)c(OC)c1
Reply: > 100 µM

Ask: // IC50 lookup, key: CCOC(=O)[C@]1(C(=O)Nc2ccccc2Cl)C[C@@H]1c1cc(OC)c(OC)c(OC)c1
Reply: > 100 µM

Ask: // IC50 lookup, key: COc1cc([C@H]2C[C@@]2(CO)C(=O)NCc2ccc(C)cc2)cc(OC)c1OC
Reply: > 100 µM

Ask: // IC50 lookup, key: CCOC(=O)[C@@]1(C(=O)NCc2ccc(C)cc2)C[C@H]1c1cc(OC)c(OC)c(OC)c1
Reply: > 100 µM

Ask: // IC50 lookup, key: CCOC(=O)[C@@]1(C(=O)NCc2ccc(C)cc2)C[C@@H]1c1cc(OC)c(OC)c(OC)c1
Reply: > 100 µM

Ask: // IC50 lookup, key: COc1cc([C@H]2C[C@]2(CO)C(=O)Nc2ccccc2)cc(OC)c1OC
Reply: > 100 µM

Ask: // IC50 lookup, key: COc1cc([C@H]2C[C@@]2(CO)C(=O)Nc2ccccc2)cc(OC)c1OC
Reply: > 100 µM

Ask: // IC50 lookup, key: CCOC(=O)[C@@]1(C(=O)Nc2ccccc2)C[C@H]1c1cc(OC)c(OC)c(OC)c1
Reply: > 100 µM

Ask: // IC50 lookup, key: CCOC(=O)C1(C(=O)NCc2ccc(OC)cc2)CC1c1cc(OC)c(OC)c(OC)c1 (cis isomer)
Reply: > 100 µM

Ask: // IC50 lookup, key: CCOC(=O)[C@@]1(C(=O)Nc2ccccc2)C[C@@H]1c1cc(OC)c(OC)c(OC)c1
Reply: > 100 µM

Ask: // IC50 lookup, key: CCOC(=O)[C@]1(C(=O)Nc2ccccc2)C[C@H]1c1cc(OC)c(OC)c(OC)c1
Reply: > 100 µM

Ask: // IC50 lookup, key: COc1cc([C@H]2C[C@@]2(CO)C(=O)Nc2ccccc2Cl)cc(OC)c1OC
Reply: > 100 µM
